Test system: parental HEK cells
test-name: HEK parental Agonist Counterscreen Assay (non-transfected cells)
Type: cell-based
recorded-conditions: Homo sapiens, HEK293; HEK Agonist Activity section of Table 4 (parental HEK counterscreen)
Excerpt: The high control for the agonist counterscreen was Forskolin not acetylcholine.
Quick reference for EC50 among some compounds

Example compounds with recorded EC50:
- compound: "Cc1cc(C)c(/C=C2/NC(=N)NC2=O)c(C)c1"
  target: "parental HEK cells"
  readout-value: "> 14.1 µM"
- compound: "Cc1cc(CC(=O)N/C=C/c2cccc3ccccc23)n[nH]1"
  target: "parental HEK cells"
  readout-value: "11.9 µM"
- compound: "COc1ccccc1NC(=O)NNC(=O)CN1C(=O)COc2ccccc21"
  target: "parental HEK cells"
  readout-value: "> 14.1 µM"
- compound: "O=C(CN1C(=O)NC2(CCc3ccccc32)C1=O)Nc1cccc(Cl)c1 (stereo not drawn)"
  target: "parental HEK cells"
  readout-value: "> 15.2 µM"
- compound: "CC(C)Cn1c2c(c(=O)[nH]c1=O)C(NC(=O)CCC1CCCCC1)(C(F)(F)F)C(=O)N2 (stereo not drawn)"
  target: "parental HEK cells"
  readout-value: "> 14.1 µM"
- compound: "O=C(CSc1ccc(Cl)cc1)Nc1nnc(-c2ccco2)o1"
  target: "parental HEK cells"
  readout-value: "> 14.3 µM"
- compound: "O=C(CC1CCN(Cc2ccccc2O)C1=O)C1CCC(c2cccc(O)c2)C(O)C1 (stereo not drawn)"
  target: "parental HEK cells"
  readout-value: "> 14.1 µM"
- compound: "COc1cccc(COC(=O)NC(C)C2COc3ccccc3O2)c1 (stereo not drawn)"
  target: "parental HEK cells"
  readout-value: "> 14.1 µM"

Entry Cc1cccc(-n2cnc3cc(C(=O)NCc4ccc5c(c4)OCO5)ccc32)c1 , EC50 reported as > 13.3 µM

----------
target: GPR139 (Homo sapiens, UniProt Q6DWJ6)
Sequence (Q6DWJ6 whole entry): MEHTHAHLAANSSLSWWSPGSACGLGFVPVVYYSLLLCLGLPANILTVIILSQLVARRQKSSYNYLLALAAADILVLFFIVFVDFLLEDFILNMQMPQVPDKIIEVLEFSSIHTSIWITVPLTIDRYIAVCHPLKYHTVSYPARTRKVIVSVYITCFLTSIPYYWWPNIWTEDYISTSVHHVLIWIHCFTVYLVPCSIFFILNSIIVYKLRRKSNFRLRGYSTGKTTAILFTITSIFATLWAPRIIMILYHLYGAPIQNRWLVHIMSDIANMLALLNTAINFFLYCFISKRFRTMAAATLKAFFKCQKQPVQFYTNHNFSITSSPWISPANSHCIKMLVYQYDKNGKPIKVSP
test-name: GPR139 Agonist titration / agonist counterscreen assay (calcium detection, HEK-GPR139 cells)
Type: cell-based
Parameters: expressed in transfected cells; host or cells: HEK Aequorin cells, Maxcyte transient transfection
recorded-conditions: GPR139 Agonist Activity; ligand efficiency
attribute-measured: Efficiency Ligand
Reply: number alone, nothing else.

Entry COc1ccc(NC(=O)NCC2CC(=O)N(c3ccccc3)C2)cc1 (stereo not drawn) [SR-01000912290] , Efficiency Ligand reported as 0.44

Entry O=C(O)c1ccccc1C(=O)c1cccc2ccccc12 [SR-01000391835] , Efficiency Ligand reported as 0.44

Entry COc1ccc(OC)c(NC(=O)NNC(=O)C(C)Oc2ccc(Cl)cc2Cl)c1 (stereo not drawn) [SR-01000276878] , Efficiency Ligand reported as 0.38

Entry O=C1N2CN(Cc3ccccc3)CN3C(=O)N4CN(Cc5ccccc5)CN1C4C23 (stereo not drawn) [SR-01000090996] , Efficiency Ligand reported as 0.34

Entry O=C(CCc1nc2cccnc2n1Cc1cccs1)NCCc1cccs1 [SR-01000077903] , Efficiency Ligand reported as 0.37

Entry COc1ccc(CC(=O)NNC(=O)C(C)Oc2ccc(Cl)cc2Cl)cc1 (stereo not drawn) [SR-01000361779] , Efficiency Ligand reported as 0.36

Entry Cc1cccc(NC(=O)NCCc2ccc3c(c2)CCCN3C)c1 [SR-01000923247] , Efficiency Ligand reported as 0.43

Entry CC(NC(=O)COC(=O)c1ccccc1C(F)(F)F)c1ccccc1 (stereo not drawn) [SR-01000037440] , Efficiency Ligand reported as 0.42

Entry CCn1c(=O)n(CC(=O)NCC2COc3ccccc3O2)c(=O)c2ccccc21 (stereo not drawn) [SR-01000589950] , Efficiency Ligand reported as 0.36

Entry C=C(CC1C=CC2=C1c1ccccc1CC2)Nc1ccc(CC)cc1 (stereo not drawn) [SR-01000098976] , Efficiency Ligand reported as 0.39

Entry O=C(Cn1nc(Cc2ccncc2)c2ccccc2c1=O)NC(O)CCc1ccccc1 (stereo not drawn) [SR-01000134029] , Efficiency Ligand reported as 0.34

Entry CC(C)CCNC(=O)C1C2C=CC3(CN(Cc4ccccc4Cl)C(=O)C13)O2 (stereo not drawn) [SR-01000104567] , Efficiency Ligand reported as 0.40

Entry COc1ccc(C(=O)NNC(=O)COc2ccc(Cl)cc2Cl)cc1OC [SR-01000357814] , Efficiency Ligand reported as 0.36

Entry CC(Oc1ccc(Cl)cc1Cl)C(=O)NNC(=O)c1ccncc1 (stereo not drawn) [SR-01000319951] , Efficiency Ligand reported as 0.42

Entry O=C(CN1C(=O)NC2(CCCc3ccccc32)C1=O)N1CCCCCC1 (stereo not drawn) [SR-01000075116] , Efficiency Ligand reported as 0.37

Entry O=C(CN1CCN(Cc2ccccc2F)C1=O)NCCc1ccc(Cl)cc1 [SR-01000125584] , Efficiency Ligand reported as 0.38

Entry Cn1c(CC(=O)NNC(=O)CSc2ccc3ccccc3c2)nc2ccccc21 [SR-01000068729] , Efficiency Ligand reported as 0.44

Entry COc1ccc(CCNC(=O)c2cnc(N3CCCC3CO)s2)cc1 (stereo not drawn) [SR-01000652673] , Efficiency Ligand reported as 0.44
